- Target Desc: pooled human IgG
Metric Name: Enzyme Activity Endpoint Assay (purified): IgG (ng/µL)

Protein	Recorded Measurement
PRT-235 (protein) MEVVEVWPYGQNPNGKTEILSQTEDSESLQRLRDIEDFQAEKKMQNVVYTKWLDGVDVKDHDFRKIVDGNIAYYATPLLNGRGFYDINKDFNRDSDKCAAAVAANMFHYWLDINRDNVDRFLRQNPEKHGIIELPDGQLKLSDFLNTYESDHGYRDKSKLFDFISNNFNGPVWTDKLLDNYINGYAYNYKYGRTIEDPTKNTSKINFFKEVFNEKILTNNHSIRNQNEFSVLLSEALYTGKAIGLSYGPAGLRHSLGHIISVWGADLDADGNVVAIYVTDSDDKKLTIGDERVGLKRYKISTDDENRLRLTAYEETDNTGGQIRGLWTLDTGKYAWADYFDKTEQTGTDQAEQLEHHHHHH	711
PRT-297 (protein) MVTSVWTKGVTPPADFTQGEDVFHAPYDANQGWYDITKEFNGKDDLLCGAATAGNMLHWWFDQNKEYIEAYLKKHPEKQKIMFGDQELLDVRKAINTKGSQKNSELFNYFRDKAFPNLSARRLGVMPDLVLDMFINGYYLNVTKTQTTDVNRTYQEKDKRGGIFDAVFTRGDQSKLLTSRHDFKEKGLKEISDLIKQELTEGKALGLSHTYANVRIGHVINLWGADFDSDGNLKAIYVTDSDSNASIGMKKYGVGVNSAGKVAISAKEIKEDNIGAQVLGLFTLSTGQDIWNQTN	338
